# system: GSPT1 (Homo sapiens, UniProt P15170+Q96SW2)
# Construct: host or cells: HEK293 LgBiT / GSPT1 HiBiT CRISPR knock-in
# Sequence (P15170 whole entry): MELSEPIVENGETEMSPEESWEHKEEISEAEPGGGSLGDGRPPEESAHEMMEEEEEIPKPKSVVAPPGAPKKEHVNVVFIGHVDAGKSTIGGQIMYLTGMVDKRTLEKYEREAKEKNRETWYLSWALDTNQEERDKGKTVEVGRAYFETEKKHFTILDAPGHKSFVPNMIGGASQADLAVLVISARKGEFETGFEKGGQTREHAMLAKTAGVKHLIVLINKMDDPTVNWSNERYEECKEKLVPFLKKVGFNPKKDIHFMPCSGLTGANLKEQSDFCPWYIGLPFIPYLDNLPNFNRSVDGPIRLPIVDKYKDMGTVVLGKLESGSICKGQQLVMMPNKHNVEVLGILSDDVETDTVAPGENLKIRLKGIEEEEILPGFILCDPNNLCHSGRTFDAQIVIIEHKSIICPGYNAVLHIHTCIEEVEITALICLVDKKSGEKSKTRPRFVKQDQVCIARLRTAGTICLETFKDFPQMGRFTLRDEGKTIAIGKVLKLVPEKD
# Sequence (Q96SW2 whole entry): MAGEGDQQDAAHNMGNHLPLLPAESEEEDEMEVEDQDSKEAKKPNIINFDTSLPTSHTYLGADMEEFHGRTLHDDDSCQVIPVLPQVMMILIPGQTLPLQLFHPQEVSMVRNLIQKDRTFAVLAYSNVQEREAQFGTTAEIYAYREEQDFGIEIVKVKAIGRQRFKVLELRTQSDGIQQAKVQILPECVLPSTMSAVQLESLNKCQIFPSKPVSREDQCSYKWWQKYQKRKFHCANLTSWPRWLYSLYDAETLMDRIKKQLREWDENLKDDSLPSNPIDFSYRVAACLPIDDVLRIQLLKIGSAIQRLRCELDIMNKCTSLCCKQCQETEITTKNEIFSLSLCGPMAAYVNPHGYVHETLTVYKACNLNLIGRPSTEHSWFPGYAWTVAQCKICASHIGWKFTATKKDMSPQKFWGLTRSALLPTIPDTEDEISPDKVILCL
# Sequence (Q16531 whole entry partner): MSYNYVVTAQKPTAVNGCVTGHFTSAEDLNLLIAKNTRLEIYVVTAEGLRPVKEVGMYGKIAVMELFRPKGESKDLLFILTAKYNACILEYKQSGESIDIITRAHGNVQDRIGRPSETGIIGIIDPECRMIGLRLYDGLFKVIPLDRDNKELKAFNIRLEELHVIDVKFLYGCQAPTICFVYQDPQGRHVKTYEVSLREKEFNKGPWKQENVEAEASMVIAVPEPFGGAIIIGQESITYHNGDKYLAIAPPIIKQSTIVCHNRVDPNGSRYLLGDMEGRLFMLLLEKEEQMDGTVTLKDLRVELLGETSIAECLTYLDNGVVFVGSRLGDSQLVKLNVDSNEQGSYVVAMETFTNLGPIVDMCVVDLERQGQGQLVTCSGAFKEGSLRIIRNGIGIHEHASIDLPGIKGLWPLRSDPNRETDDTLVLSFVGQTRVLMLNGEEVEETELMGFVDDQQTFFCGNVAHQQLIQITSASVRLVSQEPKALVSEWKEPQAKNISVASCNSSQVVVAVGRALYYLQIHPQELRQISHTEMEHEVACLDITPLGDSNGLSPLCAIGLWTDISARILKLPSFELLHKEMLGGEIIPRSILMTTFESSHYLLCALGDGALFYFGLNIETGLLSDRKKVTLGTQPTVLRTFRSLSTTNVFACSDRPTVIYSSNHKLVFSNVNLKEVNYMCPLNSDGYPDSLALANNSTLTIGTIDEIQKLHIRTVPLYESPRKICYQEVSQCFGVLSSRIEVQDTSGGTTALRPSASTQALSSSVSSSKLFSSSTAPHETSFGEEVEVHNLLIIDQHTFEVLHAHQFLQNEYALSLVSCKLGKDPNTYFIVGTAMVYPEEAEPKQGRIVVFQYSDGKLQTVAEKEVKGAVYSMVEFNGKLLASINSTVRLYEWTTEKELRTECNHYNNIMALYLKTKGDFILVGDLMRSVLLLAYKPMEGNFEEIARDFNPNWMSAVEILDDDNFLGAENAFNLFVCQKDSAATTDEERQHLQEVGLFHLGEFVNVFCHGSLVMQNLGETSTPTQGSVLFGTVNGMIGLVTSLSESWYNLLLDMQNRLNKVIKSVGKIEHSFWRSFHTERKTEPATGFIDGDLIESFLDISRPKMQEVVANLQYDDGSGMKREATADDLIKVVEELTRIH
# procedure.summary: GSPT1 HiBiT degradation assay
# Format: cell-based
# conditions.used: HEK293 LgBiT GSPT1 HiBiT cells, 6 hours
result.type: DC50

## Task Provide only the value of recorded DC50 for C=C(COc1cc([N+](=O)[O-])c(Cl)cc1NC(=O)NCc1ccc2c(c1)CN(C1CCC(=O)NC1=O)C2=O)C(=O)N1CCN(c2nc(OC[C@@H]3CCCN3C)nc3c2CCN(c2cccc4cccc(Cl)c24)C3)C[C@@H]1CC#N (stereo partly drawn)
## Result > 2.5 µM

## Task Provide only the value of recorded DC50 for C=C(COC(=O)NCc1cc(Cl)cc(NC(=O)NCc2ccc3c(c2)CN(C2CCC(=O)NC2=O)C3=O)c1)C(=O)N1CCC[C@@H](n2nc(-c3ccc(Oc4ccccc4)cc3)c3c(N)ncnc32)C1 (stereo partly drawn)
## Result 0.05 to 0.5 µM

## Task Provide only the value of recorded DC50 for C=C(COC(=O)NCCCc1cc(Cl)cc(NC(=O)NCc2ccc3c(c2)CN(C2CCC(=O)NC2=O)C3=O)c1)C(=O)N1CCN(c2nc(OC[C@@H]3CCCN3C)nc3c2CCN(c2cccc4cccc(Cl)c24)C3)C[C@@H]1CC#N (stereo partly drawn)
## Result 0.5 to 2.5 µM

## Task Provide only the value of recorded DC50 for C=C(COc1cc(Cl)cc(NC(=O)NCc2cc3c(cc2F)C(=O)N(C2CCC(=O)NC2=O)C3)c1)C(=O)N1CCN(c2nc(OC[C@@H]3CCCN3C)nc3c2CCN(c2cccc4cccc(Cl)c24)C3)C[C@@H]1CC#N (stereo partly drawn)
## Result 0.5 to 2.5 µM

## Task Provide only the value of recorded DC50 for C=C(COc1c(Cl)cccc1NC(=O)NCc1ccc2c(c1)CN(C1CCC(=O)NC1=O)C2=O)C(=O)N1CCN(c2nc(OC[C@@H]3CCCN3C)nc3c2CCN(c2cccc4cccc(Cl)c24)C3)C[C@@H]1CC#N (stereo partly drawn)
## Result < 0.05 µM

## Task Provide only the value of recorded DC50 for C=C(CN1C(=O)CCC(N2Cc3cc(CNC(=O)Nc4ccc(C)c(Cl)c4)ccc3C2=O)C1=O)C(=O)N1CCN(c2nc(OC[C@@H]3CCCN3C)nc3c2CCN(c2cccc4cccc(Cl)c24)C3)C[C@@H]1CC#N (stereo partly drawn)
## Result 0.05 to 0.5 µM

## Task Provide only the value of recorded DC50 for C=C(CN1C(=O)CCC(N2Cc3cc(CNC(=O)Nc4ccc(C)c(Cl)c4)ccc3C2=O)C1=O)C(=O)Nc1cc(Nc2ncc(-c3cn(C)c4ccccc34)cn2)c(OC)cc1N(C)CCN(C)C (stereo not drawn)
## Result 0.05 to 0.5 µM

## Task Provide only the value of recorded DC50 for C=C(CN(C(=O)NCc1ccc2c(c1)CN(C1CCC(=O)NC1=O)C2=O)c1ccc(C(F)(F)F)c(Cl)c1)C(=O)N1CCC[C@@H](n2nc(-c3ccc(Oc4ccccc4)cc3)c3c(N)ncnc32)C1 (stereo partly drawn)
## Result > 2.5 µM

## Task Provide only the value of recorded DC50 for C=C(COc1cc(NC(=O)NCc2ccc3c(c2F)CN(C2CCC(=O)NC2=O)C3=O)cc(C(F)(F)F)c1)C(=O)N1CC2(CC(n3nc(-c4ccc5c(cnn5C)c4)c(-c4c(Cl)c(C)cc5[nH]ncc45)c3C)C2)C1 (stereo not drawn)
## Result > 2.5 µM

Entry source: patent US20240408093A1
